# target.under.test: recombinant 15-PGDH protein (Homo sapiens (Human))
# assay.procedure: Inhibition of enzymatic activity of recombinant 15-PGDH in vitro
# Format: biochemical
# particulars: read-out: Enzyme inhibition % ([…]), Table 18; […] compound; read-out: Enzyme inhibition % (7.5 μM)
# inhibition at […] values compiled below

smiles.string	inhibition at […] [%]
COc1ccc(Cl)cc1N(CC(=O)Nc1cccnc1)S(=O)(=O)c1ccccc1	82.1
COc1ccc(N(CC(=O)Nc2cccnc2)S(=O)(=O)c2ccccc2)cc1C	17.2
COc1cccc(N(CC(=O)Nc2cccnc2)S(=O)(=O)c2ccccc2)c1	5.37
COc1ccc(N(CC(=O)Nc2cccnc2)S(=O)(=O)c2ccccc2)c(OC)c1	33.4
O=C(CN(c1cc(Cl)ccc1Cl)S(=O)(=O)c1ccccc1)Nc1cccnc1	49.2
COc1ccc(N(CC(=O)Nc2cccnc2)S(=O)(=O)c2ccccc2)cc1	12.1

###

# target.under.test: recombinant 15-PGDH protein (Homo sapiens (Human), UniProt P15428)
# Sequence (P15428 whole entry): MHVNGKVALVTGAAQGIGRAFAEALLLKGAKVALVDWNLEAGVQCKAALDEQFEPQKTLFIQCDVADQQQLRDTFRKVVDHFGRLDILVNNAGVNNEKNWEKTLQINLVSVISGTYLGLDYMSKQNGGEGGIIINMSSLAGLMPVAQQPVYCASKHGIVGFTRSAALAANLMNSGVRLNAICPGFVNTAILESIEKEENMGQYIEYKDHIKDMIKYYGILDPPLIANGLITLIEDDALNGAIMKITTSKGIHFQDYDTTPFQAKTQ
# assay.procedure: Inhibition of enzymatic activity of recombinant 15-PGDH in vitro;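 further: activity of recombinant human 15-PGDH assayed in vitro using PGE2 as the substrate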
# Format: biochemical
# particulars: read-out: Enzyme inhibition % ([…]), recombinant 15-PGDH, […] compound; read-out: Enzyme inhibition % (2.5 μM)
Param threshold (10%) applies to inhibition at […]; output 1 (yes) when value >= threshold, 0 (no) when value < threshold.

compound	answer.label
COc1ccc(OC)c(N(CC(=O)Nc2ccccc2OC)S(=O)(=O)c2ccccc2)c1 [SW202965]	1 (yes)
COc1ccc(OC)c(N(CC(=O)Nc2cccnc2)S(=O)(=O)c2ccc(Br)cc2)c1 [SW203737]	1 (yes)
COc1ccc(OC)c(N(CC(=O)Nc2ccc(Cl)nc2)S(=O)(=O)c2ccccc2)c1 [SW202970]	1 (yes)
COc1ccc(OC)c(N(CC(=O)Nc2cccc(C)c2)S(=O)(=O)c2ccccc2)c1 [SW202969]	0 (no)
COc1ccc(OC)c(N(CC(=O)Nc2cccnc2)C(C)=O)c1 [SW202952]	1 (yes)
COc1ccc(OC)c(N(CC(=O)Nc2cccnc2)S(=O)(=O)c2ccccc2C(F)(F)F)c1 [SW202944]	1 (yes)
COc1ccc(OC)c(N(CC(=O)Nc2cncnc2)S(=O)(=O)c2ccccc2)c1 [SW203683]	1 (yes)
COc1ccc(S(=O)(=O)N(CC(=O)N2CCCCCC2)c2cc(OC)ccc2OC)cc1 [SW207998]	0 (no)
COc1ccc(OC)c(N(CC(=O)Nc2cccc(Cl)c2)S(=O)(=O)c2ccccc2)c1 [SW202985]	1 (yes)
COc1ccc(S(=O)(=O)N(CC(=O)Nc2cccnc2)c2cc(C(F)(F)F)ccc2C(F)(F)F)cc1 [SW208008]	1 (yes)
COc1ccc(OC)c(N(CC(=O)Nc2ccnc(Cl)c2)S(=O)(=O)c2ccccc2)c1 [SW202946]	1 (yes)
COc1ccc(OC)c(N(CC(=O)Nc2cccnc2Cl)S(=O)(=O)c2ccccc2)c1 [SW202973]	0 (no)
COc1ccc(OC)c(N(CC(=O)N2CCCC2=O)S(=O)(=O)c2ccccc2)c1 [SW208002]	1 (yes)
COc1ccc(OC)c(N(CC(=O)Nc2nccs2)S(=O)(=O)c2ccccc2)c1 [SW203691]	0 (no)
CCOC(=O)CN(c1cc(OC)ccc1OC)S(=O)(=O)c1ccccc1 [SW202951]	0 (no)
COc1ccc(OC)c(N(CC(=O)O)S(=O)(=O)c2ccccc2)c1 [SW122063]	0 (no)
COc1ccc(OC)c(N(CC(=O)Nc2ccc(C)nc2)[S@SP3](=O)(=O)c2ccccc2)c1 [SW202988]	1 (yes)
